experiment: Ratio of brain to plasma; format: in vivo; conditions: rat, brain/plasma; rats; 10 mg/kg PO; 0.25 h
compounds and their reported Kp at 0.25 h
// return a plain number; no unit text

# structureSmiles, quantitativeResult
data = [
    ("O=C(/C=C\\n1cnc(-c2cc(C(F)(F)F)cc(S(F)(F)(F)(F)F)c2)n1)NNc1ccccn1", 0.716),
]

Below: the item to evaluate.
Consider O=C(/C=C\n1cnc(-c2cc(C(F)(F)F)cc(S(F)(F)(F)(F)F)c2)n1)NNc1cnccn1 . Its measured Kp at 0.25 h is 0.386

====

tested on: U251; experiment: CellTiter-Glo cell proliferation assay, U251; format: cell-based; details: Homo sapiens, U-251; Table 11; read-out: Absolute IC50 (μM) U251
measure: IC50

# compound, experimentalSystem, IC50
data = [
    ("CC(C)(C)C(=O)NNC(=O)/C=C\\n1cnc(-c2cc(C(F)(F)F)cc(S(F)(F)(F)(F)F)c2)n1", "U251", "3.8 µM"),
    ("O=C(/C=C\\n1cnc(-c2cc(C(F)(F)F)cc(S(F)(F)(F)(F)F)c2)n1)NNc1nccs1", "U251", "3.8 µM"),
]

Consider O=C(/C=C\n1cnc(-c2cc(C(F)(F)F)cc(S(F)(F)(F)(F)F)c2)n1)NNc1ccccn1 . Its measured IC50 is 2.3 µM

Consider O=C(/C=C\n1cnc(-c2cc(C(F)(F)F)cc(S(F)(F)(F)(F)F)c2)n1)NNc1cnccn1 . Its measured IC50 is 1.2 µM

Consider O=C(/C=C\n1cnc(-c2cc(C(F)(F)F)cc(C(F)(F)F)c2)n1)NNc1cnccn1 [KPT-330, reference compound] . Its measured IC50 is 1 µM
